conditions: in water, 353.15 K
measurement-label: solubility (mole fraction)

cpd-smiles	recorded-measurement
C(=Cc1ccc(-c2nc3ccccc3o2)cc1)c1ccc(-c2nc3ccccc3o2)cc1	5.56e-07

---

details: in water, 338.15 K

cpd-smiles	solubility (mole fraction)
C(=Cc1ccc(-c2nc3ccccc3o2)cc1)c1ccc(-c2nc3ccccc3o2)cc1	3.39e-07

---

conditions: in water, 323.15 K

cpd-smiles	solubility (mole fraction)
C(=Cc1ccc(-c2nc3ccccc3o2)cc1)c1ccc(-c2nc3ccccc3o2)cc1	1.3e-07

---

details: in chlorobenzene, 323.15 K

cpd-smiles	solubility (mole fraction)
C(=Cc1ccc(-c2nc3ccccc3o2)cc1)c1ccc(-c2nc3ccccc3o2)cc1	8.89e-06

Data origin, for the record: BigSolDB 2.1
